experiment: Peptide stability in simulated intestinal fluid (SIF); format: in vitro ADME; details: pig; 4 h, 37 °C, 10 μM, simulated intestinal fluid pH 6.8 with porcine pancreatin; read-out: SIF (% after 4 h), intact peptide remaining
*1 amine or outer side, *2 acyl side, *3 side chain or, on linkers, in order; H or OH if unused. Where a SMILES comes first, the peptide text is derived from it. Bridges are numbered along the chain shown (N, C = ends). [ ]: non-standard residue; d: D form. 2Nal = N[C@@H](Cc1ccc2ccccc2c1)C(=O)O; AEF = NCCOc1ccc(C[C@H](N)C(=O)O)cc1; X1 = O=C(Cc1ccc(CN[*:1])cc1)[*:2]; 3Pal = N[C@@H](Cc1cccnc1)C(=O)O; αMeL = CC(C)C[C@](C)(N)C(=O)O; β3hL = CC(C)C[C@H](N)CC(=O)O; Dab = NCC[C@H](N)C(=O)O
assay-endpoint: remaining at 4 h, 10 µM (%)

>>> experimental_value("CC(C)C[C@]1(C)NC(=O)[C@H](Cc2ccc3ccccc3c2)NC(=O)[C@H](Cc2ccc(OCCN)cc2)NC(=O)[C@@H]2CCNC(=O)CC[C@H](NC(=O)[C@H](CO)NC(=O)Cc3ccc(cc3)CNC(=O)CC[C@@H](C(=O)N[C@@H](CCN)C(=O)NCCc3cccnc3)NC1=O)C(=O)N[C@@H](Cc1c[nH]c3ccccc13)C(=O)N[C@@H](CCC(N)=O)C(=O)N2")
130
>>> experimental_value("CC(C)C[C@@H](CC(N)=O)NC(=O)[C@H](Cc1cccnc1)NC(=O)[C@H](CCN)NC(=O)[C@@H]1CCC(=O)NCc2ccc(cc2)CC(=O)N[C@@H](CO)C(=O)N[C@H]2CCC(=O)NCC[C@H](NC(=O)[C@H](CCC(N)=O)NC(=O)[C@H](Cc3c[nH]c4ccccc34)NC2=O)C(=O)N[C@@H](Cc2ccc(OCCN)cc2)C(=O)N[C@@H](Cc2ccc3ccccc3c2)C(=O)N[C@@](C)(CC(C)C)C(=O)N1 [Compound 11] ([X1]SEWQ[Dab][AEF][2Nal][αMeL]E[Dab][3Pal][β3hL]-NH2; lactam 3-6, N-10)")
102

* * *

experiment: Peptide stability in simulated gastric fluid (SGF); assay type: in vitro ADME; settings: pig, 1 h, pH 1.2, pepsin, 37° C.
*1 amine or outer side, *2 acyl side, *3 side chain or, on linkers, in order; H or OH if unused. Where a SMILES comes first, the peptide text is derived from it. Bridges are numbered along the chain shown (N, C = ends). [ ]: non-standard residue; d: D form. 2Nal = N[C@@H](Cc1ccc2ccccc2c1)C(=O)O; AEF = NCCOc1ccc(C[C@H](N)C(=O)O)cc1; X1 = O=C(Cc1ccc(CN[*:1])cc1)[*:2]; 3Pal = N[C@@H](Cc1cccnc1)C(=O)O; αMeL = CC(C)C[C@](C)(N)C(=O)O; Dab = NCC[C@H](N)C(=O)O
Each item that follows carries a reported remaining at 1 h, 10 µM.
assay-endpoint: remaining at 1 h, 10 µM

>>> experimental_value("CNC(=O)[C@H](Cc1cccnc1)NC(=O)[C@H](CCN)NC(=O)[C@@H]1CCC(=O)NCc2ccc(cc2)CC(=O)N[C@@H](C)C(=O)N[C@H]2CCC(=O)NCC[C@H](NC(=O)[C@H](CCC(N)=O)NC(=O)[C@H](Cc3c[nH]c4ccccc34)NC2=O)C(=O)N[C@@H](Cc2ccc(OCCN)cc2)C(=O)N[C@@H](Cc2ccc3ccccc3c2)C(=O)N[C@@](C)(CC(C)C)C(=O)N1")
"107%"
>>> experimental_value("CC(C)C[C@]1(C)NC(=O)[C@H](Cc2ccc3ccccc3c2)NC(=O)[C@H](Cc2ccc(OCCN)cc2)NC(=O)[C@@H]2CCNC(=O)CC[C@H](NC(=O)[C@H](CO)NC(=O)Cc3ccc(cc3)CNC(=O)CC[C@@H](C(=O)N[C@@H](CCN)C(=O)N[C@@H](Cc3c[nH]cn3)C(=O)N[C@@H](Cc3cccnc3)C(N)=O)NC1=O)C(=O)N[C@@H](Cc1c[nH]c3ccccc13)C(=O)N[C@@H](CCC(N)=O)C(=O)N2 [Compound 12] ([X1]SEWQ[Dab][AEF][2Nal][αMeL]E[Dab]H[3Pal]-NH2; lactam 3-6, N-10)")
"94%"
>>> experimental_value("CNC(=O)[C@H](Cc1cccnc1)NC(=O)[C@H](CCN)NC(=O)[C@@H]1CCC(=O)NCc2ccc(cc2)CC(=O)N[C@@H](CO)C(=O)N[C@H]2CCC(=O)NCC[C@H](NC(=O)[C@H](CCCCNC(C)=O)NC(=O)[C@H](Cc3c[nH]c4ccccc34)NC2=O)C(=O)N[C@@H](Cc2ccc(OCCN)cc2)C(=O)N[C@@H](Cc2ccc3ccccc3c2)C(=O)N[C@@](C)(CC(C)C)C(=O)N1 [Compound 24] ([X1]SEWK(Ac)[Dab][AEF][2Nal][αMeL]E[Dab][3Pal]-NHMe; lactam 3-6, N-10)")
"93%"
>>> experimental_value("CC(C)C[C@]1(C)NC(=O)[C@H](Cc2ccc3ccccc3c2)NC(=O)[C@H](Cc2ccc(OCCN)cc2)NC(=O)[C@@H]2CCNC(=O)CC[C@H](NC(=O)[C@H](CO)NC(=O)Cc3ccc(cc3)CNC(=O)CC[C@@H](C(=O)N[C@@H](CCN)C(=O)NCCCCc3cccnc3)NC1=O)C(=O)N[C@@H](Cc1c[nH]c3ccccc13)C(=O)N[C@@H](CCC(N)=O)C(=O)N2")
"110%"
>>> experimental_value("CC(C)C[C@@H]1NC(=O)[C@H](Cc2c[nH]c3ccccc23)NC(=O)[C@H](Cc2c[nH]c3ccccc23)NC(=O)[C@@H]2CSCC(=O)CSC[C@H](NC(=O)[C@H](CO)NC(=O)[C@@H](NC(=O)[C@@H](N)CC(=O)O)CSCC(=O)CSC[C@@H](C(=O)N[C@@H](CCCNC(=N)N)C(N)=O)NC1=O)C(=O)N[C@@H](Cc1c[nH]c3ccccc13)C(=O)N[C@@H](CCC(N)=O)C(=O)N2 (single isomer, unassigned) [I3 (isomer 3), H-DC(1a)SC(2a)WQC(2a)WWLC(1a)R-[NH2], reference compound]")
"5%"
>>> experimental_value("CNC(=O)[C@H](Cc1cccnc1)NC(=O)[C@H](CCN)NC(=O)[C@@H]1CCC(=O)NCc2ccc(cc2)CC(=O)N[C@@H](Cc2ccccc2)C(=O)N[C@H]2CCC(=O)NCC[C@H](NC(=O)[C@H](CCC(N)=O)NC(=O)[C@H](Cc3c[nH]c4ccccc34)NC2=O)C(=O)N[C@@H](Cc2ccc(OCCN)cc2)C(=O)N[C@@H](Cc2ccc3ccccc3c2)C(=O)N[C@@](C)(CC(C)C)C(=O)N1 [Compound 21] ([X1]FEWQ[Dab][AEF][2Nal][αMeL]E[Dab][3Pal]-NHMe; lactam 3-6, N-10)")
"101%"
>>> experimental_value("CNC(=O)[C@H](Cc1cccnc1)NC(=O)[C@H](CCN)NC(=O)[C@@H]1CCC(=O)NCc2ccc(cc2)CC(=O)N[C@@H](CO)C(=O)N[C@H]2CCC(=O)NCC[C@H](NC(=O)[C@H](CCNC(C)=O)NC(=O)[C@H](Cc3c[nH]c4ccccc34)NC2=O)C(=O)N[C@@H](Cc2ccc(OCCN)cc2)C(=O)N[C@@H](Cc2ccc3ccccc3c2)C(=O)N[C@@](C)(CC(C)C)C(=O)N1 [Compound 25] ([X1]SEW[Dab](Ac)[Dab][AEF][2Nal][αMeL]E[Dab][3Pal]-NHMe; lactam 3-6, N-10)")
"93%"
>>> experimental_value("CC(C)C[C@]1(C)NC(=O)[C@H](Cc2ccc3ccccc3c2)NC(=O)[C@H](Cc2ccc(OCCN)cc2)NC(=O)[C@@H]2CCNC(=O)CC[C@H](NC(=O)[C@H](CO)NC(=O)Cc3ccc(cc3)CNC(=O)CC[C@@H](C(=O)N[C@@H](CCN)C(=O)N[C@H](Cc3c[nH]cn3)C(N)=O)NC1=O)C(=O)N[C@@H](Cc1c[nH]c3ccccc13)C(=O)N[C@@H](CCC(N)=O)C(=O)N2")
"94%"
>>> experimental_value("CNC(=O)[C@H](Cc1cccnc1)NC(=O)[C@H](CCN)NC(=O)[C@@H]1CCC(=O)NCc2ccc(cc2)CC(=O)N[C@@H](C)C(=O)N[C@H]2CCC(=O)NCC[C@H](NC(=O)[C@H](CCC(N)=O)NC(=O)[C@H](Cc3c[nH]c4ccccc34)NC2=O)C(=O)N[C@@H](Cc2c[nH]c3c(F)cccc23)C(=O)N[C@@H](Cc2ccc3ccccc3c2)C(=O)NC(C)(C)C(=O)N1")
"103%"
